Molecular target: ACC1 from rat liver (Rattus norvegicus)
Construct: The livers (for ACC1 preparation) or skeletal muscle tissue (for ACC2 preparation) are removed; from tissue; host or cells: liver of male CD rats (fasted, then fed a high sucrose diet)
Test: Direct inhibition of ACC1 activity (14C-bicarbonate incorporation)
Format: biochemical
Details: Table of Examples M1-M36
pIC50: −log10 of the molar value.
READOUT NAME: pIC50

CS(=O)(=O)c1ccc2c(c1)C(=O)CC1(CCN(C(=O)c3cccc(-c4cc[nH]n4)c3)CC1)O2
6.36
COc1ccc2c(c1)OC1(CCN(C(=O)c3cccc(-c4cc[nH]n4)c3)CC1)CC2=O
6.32
O=C1CC2(CCN(C(=O)c3cccc(-c4cc[nH]n4)c3)CC2)Oc2cc(F)ccc21
6.09
CN(C)C(=O)c1ccc2c(c1)C(=O)CC1(CCN(C(=O)c3cccc(-c4cc[nH]n4)c3)CC1)O2
6.24
COc1ccc2c(c1)C(=O)CC1(CCN(C(=O)c3cccc(-c4cc[nH]n4)c3)CC1)O2
6.89

(1) O=C1CC2(CCN(C(=O)c3cccc(-c4cc[nH]n4)c3)CC2)Oc2c(Cl)cc(Cl)cc21
(2) O=C1CC2(CCN(C(=O)c3cccc(-c4cc[nH]n4)c3)CC2)Oc2ccc(OC(F)(F)F)cc21
(Q) Looking only at measured pIC50, which entry is lower, 1 or 2 ? // respond with label for picked entry
(A) 1

(1) CNC(=O)c1ccc2c(c1)C(=O)CC1(CCN(C(=O)c3cccc(-c4cc[nH]n4)c3)CC1)O2
(2) Cc1cc2c(c(C)c1Cl)C(=O)CC1(CCN(C(=O)c3cccc(-c4cc[nH]n4)c3)CC1)O2
(3) O=C1CC2(CCN(C(=O)c3cccc(-c4cc[nH]n4)c3)CC2)Oc2cc(Cl)c(Cl)cc21
(4) N#Cc1ccc2c(c1)C(=O)CC1(CCN(C(=O)c3cccc(-c4cc[nH]n4)c3)CC1)O2
(Q) Reorder: pIC50, max to min. A ranking is expressed here by listing the labels in the requested order.
(A) 1, 3, 2, 4

---

Target: ACC1 from rat liver (Rattus norvegicus)
Construct: The livers (for ACC1 preparation) or skeletal muscle tissue (for ACC2 preparation) are removed; from tissue; host or cells: liver of male CD rats (fasted, then fed a high sucrose diet)
Test: Direct inhibition of ACC1 activity (14C-bicarbonate incorporation)
Assay type: biochemical
Conditions: ACC1 from rat liver
READOUT NAME: IC50 (nM)

Worked examples, 4 molecules total:
O=C1CC2(CCN(C(=O)c3ccc4c(Cl)c[nH]c4c3)CC2)Oc2ccc(Cl)cc21
183
Cc1cc(C)c2c(c1)OC1(CCN(C(=O)c3cc(C)c4[nH]ncc4c3)CC1)CC2=O
146
CCc1cc(C(=O)N2CCC3(CC2)CC(=O)c2cc(C)c(C)cc2O3)cc2cn[nH]c12
17.5
COc1cccc2c1C(=O)CC1(CCN(C(=O)c3cc(C)c4[nH]ncc4c3)CC1)O2
112

(1) O=C1CC2(CCN(C(=O)c3cccc4cn[nH]c34)CC2)Oc2ccc(Cl)cc21
(2) COc1ccc2c(c1)OC1(CCN(C(=O)c3cc(C)c4[nH]ncc4c3)CC1)CC2=O
(Q) Higher IC50 between 1 and 2 ? // respond with label for picked entry
(A) 1

---

Target: ACC1 from rat liver (Rattus norvegicus, UniProt P11497)
Construct: The livers (for ACC1 preparation) or skeletal muscle tissue (for ACC2 preparation) are removed; from tissue; host or cells: liver of male CD rats (fasted, then fed a high sucrose diet)
Assay: Direct inhibition of ACC1 activity (14C-bicarbonate incorporation)
Type: biochemical
Conditions: ACC1 from rat liver
pIC50: −log10 of the molar value. Where a name gives a salt, the structure may show the parent alone.
READOUT NAME: pIC50

Cc1cc2c(cc1C)C(=O)CC1(CCN(C(=O)c3ccc4[nH]c(-c5ccccn5)nc4c3)CC1)O2 [Ex. L26, trifluoroacetic acid salt]
7.20
Cc1cc(C(=O)N2CCC3(CC2)CC(=O)c2cc(OC(F)(F)F)ccc2O3)cc2cn[nH]c12
7.38
Cc1cc2c(cc1C)C(=O)CC1(CCN(C(=O)c3ccc4nc[nH]c4c3)CC1)O2 [Ex. L33]
7.00

(a) O=C1CC2(CCN(C(=O)c3cccc4cn[nH]c34)CC2)Oc2cc(F)ccc21
(b) Cc1cc2c(cc1C)C(=O)CC1(CCN(C(=O)c3ccc4[nH]cc(Cl)c4c3)CC1)O2
(c) Cc1cc2c(cc1C)C(=O)CC1(CCN(C(=O)c3ccc4c(c3)[nH]c(=O)n4C)CC1)O2
(d) Cc1cc(C(=O)N2CCC3(CC2)CC(=O)c2cc(OC(C)C)ccc2O3)cc2cn[nH]c12
(Q) Reorder: pIC50, max to min. A ranking is expressed here by listing the labels in the requested order.
(A) d, b, c, a

---

Biological target: ACC1 from rat liver (Rattus norvegicus, UniProt P11497)
Construct: The livers (for ACC1 preparation) or skeletal muscle tissue (for ACC2 preparation) are removed; from tissue; host or cells: liver of male CD rats (fasted, then fed a high sucrose diet)
Experiment: Direct inhibition of ACC1 activity (14C-bicarbonate incorporation)
Assay type: biochemical
Settings: Table of Examples M1-M36
READOUT NAME: IC50 (nM)

Cc1ccc2c(c1)C(=O)CC1(CCN(C(=O)c3cccc(-c4cc[nH]n4)c3)CC1)O2 [Ex. M23]
475
COc1ccc2c(c1F)C(=O)CC1(CCN(C(=O)c3cccc(-c4cc[nH]n4)c3)CC1)O2 [Ex. M14]
223
Cc1cc2c(cc1Cl)C(=O)CC1(CCN(C(=O)c3cccc(-c4cc[nH]n4)c3)CC1)O2 [Ex. M3]
105
COc1cc2c(cc1OC)C(=O)CC1(CCN(C(=O)c3cccc(-c4cc[nH]n4)c3)CC1)O2 [Ex. M31]
697

(P) O=C1CC2(CCN(C(=O)c3cccc(-c4cc[nH]n4)c3)CC2)Oc2ccc(Cl)cc21 [Ex. M30]
(Q) O=C1CC2(CCN(C(=O)c3cccc(-c4cc[nH]n4)c3)CC2)Oc2ccc(C(=O)N3CCCC3)cc21 [Ex. M9]
(R) CC(C)NC(=O)c1ccc2c(c1)C(=O)CC1(CCN(C(=O)c3cccc(-c4cc[nH]n4)c3)CC1)O2 [Ex. M17]
(S) O=C1CC2(CCN(C(=O)c3cccc(-c4cc[nH]n4)c3)CC2)Oc2cc(Cl)c(F)cc21 [Ex. M36]
(Q) Hey, can you sort those compounds up there by IC50, smallest first? A ranking is expressed here by listing the labels in the requested order.
(A) Q, R, P, S
(Q: 179 nM, R: 350 nM, P: 613 nM, S: 1990 nM)

---

Biological target: ACC1 from rat liver (Rattus norvegicus)
Construct: The livers (for ACC1 preparation) or skeletal muscle tissue (for ACC2 preparation) are removed; from tissue; host or cells: liver of male CD rats (fasted, then fed a high sucrose diet)
Test: Direct inhibition of ACC1 activity (14C-bicarbonate incorporation)
Format: biochemical
Settings: ACC1 from rat liver
Description: [1] Preparation of ACC1 and ACC2. Male CD rats weighing 150-200 g are fasted for 2 days and then fed a high sucrose diet (AIN-76A rodent diet; Cat # D10001, Research Diets Inc., New Brunswick, N.J.), for 3 days at which time they are sacrificed by CO2 asphyxiation. […] [2] […] The dried vials are then cooled, 0.5 ml of water and 5.5 ml of Ready Safe liquid scintillation fluid (Beckman Coulter Inc., Fullerton, Calif.) are added, and the radioactivity is determined using a liquid scintillation counter. […]
Structures can show the parent of a compound that is named as a salt.
READOUT NAME: IC50 (µM)

Worked examples, 3 compounds total:
Cc1cc(C(=O)N2CCC3(CC2)CC(=O)c2cc(C#N)ccc2O3)cc2cn[nH]c12
0.234
Cc1cc2c(cc1C)C(=O)CC1(CCN(C(=O)c3cc(C)c4[nH]ncc4c3)CC1)O2 [Ex. A2, trifluoroacetic acid salt]
0.0301
Cc1cc2c(cc1C)C(=O)CC1(CCN(C(=O)c3ccc4nc(-c5ccncc5)[nH]c4c3)CC1)O2 [Ex. L36, trifluoroacetic acid salt]
0.0507

(1) CNC(=O)c1ccc2c(c1)C(=O)CC1(CCN(C(=O)c3cc(C)c4[nH]ncc4c3)CC1)O2
(2) COc1cccc2c1C(=O)CC1(CCN(C(=O)c3cccc4cn[nH]c34)CC1)O2 [Ex. H16]
(Q) Looking only at measured IC50, which entry is lower, 1 or 2 ? // respond with label for picked entry
(A) 1
